# credit: ChEMBL document CHEMBL3817763

# measured-target: Geranylgeranyl transferase type I (Homo sapiens) (UniProt P49354+P53609)
# assay-procedure: Ratio of Kcat to Km for recombinant GGTase1 (unknown origin) using dansyl-GCVLL as co-substrate assessed as protein prenylation by spectrofluorometric method relative to GGPP
Please respond with reported Ratio for every item in the list.
One number for each entry.

In the examples that follow, each entry is paired with its recorded Ratio.
[
  {
    "molecule": "CC(C)=CCCCCCCCCCC/C(C)=C/COP(=O)(O)OP(=O)(O)O",
    "reported-value": 0.5
  },
  {
    "molecule": "CCCCCCCC/C(C)=C/CC/C(C)=C/COP(=O)(O)OP(=O)(O)O",
    "reported-value": 0.58
  },
  {
    "molecule": "CCCCCCCCC/C(C)=C/CC/C(C)=C/COP(=O)(O)OP(=O)(O)O",
    "reported-value": 0.95
  },
  {
    "molecule": "C/C(=C\\CC/C(C)=C/COP(=O)(O)OP(=O)(O)O)CC/C=C(\\C)CCCC(C)C",
    "reported-value": 0.17
  }
]

For each entry beneath this line, provide reported Ratio.
1. C/C(=C\COP(=O)(O)OP(=O)(O)O)CC/C=C(\C)CCCC(C)CCCC(C)C (stereo unspecified)
2. CCCCCCC/C(C)=C/CC/C(C)=C/COP(=O)(O)OP(=O)(O)O

[0.03, 0.85]
